Taken from patent US12187772.

Assayed Target: T1, IL10 receptor (IL10 receptor subunit alpha IL10Ra and beta subunit IL10Rb) on Ramos/STAT3-Luc and … (UniProt Q13651 22-578; Q08334 20-325, limits assumed)
T1 sequence (looked up) 1: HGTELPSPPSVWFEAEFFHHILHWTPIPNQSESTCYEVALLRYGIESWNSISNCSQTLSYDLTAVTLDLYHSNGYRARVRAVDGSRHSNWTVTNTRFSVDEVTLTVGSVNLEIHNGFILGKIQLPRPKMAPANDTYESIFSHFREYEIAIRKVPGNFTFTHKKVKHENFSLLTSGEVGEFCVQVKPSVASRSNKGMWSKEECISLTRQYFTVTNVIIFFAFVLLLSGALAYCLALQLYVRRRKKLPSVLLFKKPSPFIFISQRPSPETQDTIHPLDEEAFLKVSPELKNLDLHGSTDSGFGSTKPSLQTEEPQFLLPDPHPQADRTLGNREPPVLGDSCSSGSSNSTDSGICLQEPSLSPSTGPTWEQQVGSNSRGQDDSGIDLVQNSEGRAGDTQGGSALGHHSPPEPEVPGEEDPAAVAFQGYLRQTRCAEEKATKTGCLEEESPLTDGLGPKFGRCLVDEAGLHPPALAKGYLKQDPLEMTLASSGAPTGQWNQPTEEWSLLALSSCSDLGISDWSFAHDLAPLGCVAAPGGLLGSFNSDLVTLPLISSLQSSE
T1 sequence (looked up) 2: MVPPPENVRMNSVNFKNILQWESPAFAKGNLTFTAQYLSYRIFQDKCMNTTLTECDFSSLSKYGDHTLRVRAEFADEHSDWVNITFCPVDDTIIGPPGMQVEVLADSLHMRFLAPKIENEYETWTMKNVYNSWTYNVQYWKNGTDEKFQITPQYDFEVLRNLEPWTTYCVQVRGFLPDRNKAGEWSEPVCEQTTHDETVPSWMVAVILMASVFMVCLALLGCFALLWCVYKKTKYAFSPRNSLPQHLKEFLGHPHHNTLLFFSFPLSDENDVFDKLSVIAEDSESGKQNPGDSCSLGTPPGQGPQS
Assay Name: cell-based or functional assay
Readout Name: Fold Induction of luciferase activity, Ramos/Stat3-Luc reporter cells (fold)
Just the number in fold, nothing appended.

Report Fold Induction of luciferase activity, Ramos/Stat3-Luc reporter cells for IL10M4 (Fc-2XG4S-hIL10; Fc is IgG4s) (Fc fusion) ESKYGPPCPPCPAPPVAGPSVFLFPPKPKDTLMISRTPEVTCVVVDVSQEDPEVQFNWYVDGVEVHNAKTKPREEQFNSTYRVVSVLTVLHQDWLNGKEYKCKVSNKGLPSSIEKTISKAKGQPREPQVYTLPPSQEEMTKNQVSLTCLVKGFYPSDIAVEWESNGQPENNYKTTPPVLDSDGSFFLYSRLTVDKSRWQEGNVFSCSVMHEALHNHYTQKSLSLSLGKGGGGSGGGGSSPGQGTQSENSCTHFPGNLPNMLRDLRDAFSRVKTFFQMKDQLDNLLLKESLLEDFKGYLGCQALSEMIQFYLEEVMPQAENQDPDIKAHVNSLGENLKTLRLRLRRCHRFLPCENKSKAVEQVKNAFNKLQEKGIYKAMSEFDIFINYIEAYMTMKIRN please. 4.06

Report Fold Induction of luciferase activity, Ramos/Stat3-Luc reporter cells for IL10M7 (hIL10-1XG4S-Fc; Fc is IgG4s) (Fc fusion) SPGQGTQSENSCTHFPGNLPNMLRDLRDAFSRVKTFFQMKDQLDNLLLKESLLEDFKGYLGCQALSEMIQFYLEEVMPQAENQDPDIKAHVNSLGENLKTLRLRLRRCHRFLPCENKSKAVEQVKNAFNKLQEKGIYKAMSEFDIFINYIEAYMTMKIRNGGGGSESKYGPPCPPCPAPPVAGPSVFLFPPKPKDTLMISRTPEVTCVVVDVSQEDPEVQFNWYVDGVEVHNAKTKPREEQFNSTYRVVSVLTVLHQDWLNGKEYKCKVSNKGLPSSIEKTISKAKGQPREPQVYTLPPSQEEMTKNQVSLTCLVKGFYPSDIAVEWESNGQPENNYKTTPPVLDSDGSFFLYSRLTVDKSRWQEGNVFSCSVMHEALHNHYTQKSLSLSLGK please. 2.88

Report Fold Induction of luciferase activity, Ramos/Stat3-Luc reporter cells for IL10M8 (hIL10-Fc; Fc is IgG4s) (Fc fusion) SPGQGTQSENSCTHFPGNLPNMLRDLRDAFSRVKTFFQMKDQLDNLLLKESLLEDFKGYLGCQALSEMIQFYLEEVMPQAENQDPDIKAHVNSLGENLKTLRLRLRRCHRFLPCENKSKAVEQVKNAFNKLQEKGIYKAMSEFDIFINYIEAYMTMKIRNESKYGPPCPPCPAPPVAGPSVFLFPPKPKDTLMISRTPEVTCVVVDVSQEDPEVQFNWYVDGVEVHNAKTKPREEQFNSTYRVVSVLTVLHQDWLNGKEYKCKVSNKGLPSSIEKTISKAKGQPREPQVYTLPPSQEEMTKNQVSLTCLVKGFYPSDIAVEWESNGQPENNYKTTPPVLDSDGSFFLYSRLTVDKSRWQEGNVFSCSVMHEALHNHYTQKSLSLSLGK please. 3.2
